test system: Plasmodium berghei; experiment: Antimalarial activity in Plasmodium berghei infected mice (Mus musculus) at 128 mg/kg/day peroral dose; format: functional; conditions: route oral
quantity_kind: Activity

compound	measured
C[C@@H]1CC[C@H]2[C@@H](C)C(=O)O[C@@H]3O[C@@]4(C)CC[C@@H]1[C@]32OO4 [ARTEMISININ]	0
C[C@@H]1CC[C@H]2[C@@H](CCCc3ccc(F)cc3)CO[C@@H]3OC4(C)CC[C@@H]1[C@]32OO4 (single isomer, unassigned)	5
C[C@@H]1CC[C@H]2[C@@H](CCCc3ccc(Cl)cc3)CO[C@@H]3OC4(C)CC[C@@H]1[C@]32OO4 (single isomer, unassigned)	5
C[C@@H]1CC[C@H]2[C@@H](CCCc3ccc(Cl)c(Cl)c3)CO[C@@H]3OC4(C)CC[C@@H]1[C@]32OO4 (single isomer, unassigned)	5
COc1ccc(CCC[C@H]2CO[C@@H]3OC4(C)CC[C@H]5[C@H](C)CC[C@@H]2[C@@]35OO4)cc1 (single isomer, unassigned)	5
C[C@@H]1CC[C@H]2[C@@H](CCCc3ccccc3)CO[C@@H]3OC4(C)CC[C@@H]1[C@]32OO4 (single isomer, unassigned)	5

====

system: Plasmodium berghei; test: Antimalarial activity in Plasmodium berghei infected mice (Mus musculus) at 8 mg/kg/day peroral dose; format: functional; conditions: route oral
Below, each of the compounds is paired with its reported Activity value.

compound	test_system	Activity
COc1ccc(CCC[C@H]2CO[C@@H]3OC4(C)CC[C@H]5[C@H](C)CC[C@@H]2[C@@]35OO4)cc1 (single isomer, unassigned)	Plasmodium berghei	0
C[C@@H]1CC[C@H]2[C@@H](CCCc3ccccc3)CO[C@@H]3OC4(C)CC[C@@H]1[C@]32OO4 (single isomer, unassigned)	Plasmodium berghei	0
C[C@@H]1CC[C@H]2[C@@H](C)C(=O)O[C@@H]3O[C@@]4(C)CC[C@@H]1[C@]32OO4	Plasmodium berghei	0
C[C@@H]1CC[C@H]2[C@@H](CCCc3ccc(F)cc3)CO[C@@H]3OC4(C)CC[C@@H]1[C@]32OO4 (single isomer, unassigned)	Plasmodium berghei	1
CCCC[C@H]1CO[C@@H]2O[C@]3(C)CC[C@H]4[C@H](C)CC[C@@H]1[C@@]24OO3	Plasmodium berghei	0
C[C@@H]1CC[C@H]2[C@@H](CCCc3ccc(Cl)c(Cl)c3)CO[C@@H]3OC4(C)CC[C@@H]1[C@]32OO4 (single isomer, unassigned)	Plasmodium berghei	0

====

Below, each of the molecules is paired with its reported ED90 value.
system: Plasmodium yoelii; assay: Effective dose ED90 against Plasmodium yoelii sspNS on subcutaneous dose; type: functional; conditions: sc

molecule	test_system	ED90
C[C@@H]1CC[C@H]2[C@@H](CCCc3ccc(C(F)(F)F)cc3)CO[C@@H]3OC4(C)CC[C@@H]1[C@]32OO4 (single isomer, unassigned)	Plasmodium yoelii	1.25 mg/kg
C[C@@H]1CC[C@H]2[C@@H](CCCc3cccc(C(F)(F)F)c3)CO[C@@H]3OC4(C)CC[C@@H]1[C@]32OO4 (single isomer, unassigned)	Plasmodium yoelii	1 mg/kg
C[C@@H]1CC[C@H]2[C@@H](CCCc3cccc(Cl)c3)CO[C@@H]3OC4(C)CC[C@@H]1[C@]32OO4 (single isomer, unassigned)	Plasmodium yoelii	1 mg/kg
C[C@@H]1CC[C@H]2[C@@H](CCCc3cccc(F)c3)CO[C@@H]3OC4(C)CC[C@@H]1[C@]32OO4 (single isomer, unassigned)	Plasmodium yoelii	1 mg/kg

====

Below, each of the compounds is paired with its reported Activity value.
test system: Plasmodium berghei; experiment: Antimalarial activity in Plasmodium berghei infected mice (Mus musculus) at 8 mg/kg/day subcutaneous dose; assay type: functional
quantity_kind: Activity

compound	measured
C[C@@H]1CC[C@H]2[C@@H](CCCc3ccc(Cl)c(Cl)c3)CO[C@@H]3OC4(C)CC[C@@H]1[C@]32OO4 (single isomer, unassigned)	0
CCCC[C@H]1CO[C@@H]2O[C@]3(C)CC[C@H]4[C@H](C)CC[C@@H]1[C@@]24OO3	5
COc1ccc(CCC[C@H]2CO[C@@H]3OC4(C)CC[C@H]5[C@H](C)CC[C@@H]2[C@@]35OO4)cc1 (single isomer, unassigned)	0
C[C@@H]1CC[C@H]2[C@@H](CCCc3ccccc3)CO[C@@H]3OC4(C)CC[C@@H]1[C@]32OO4 (single isomer, unassigned)	0
C[C@@H]1CC[C@H]2[C@@H](C)C(=O)O[C@@H]3O[C@@]4(C)CC[C@@H]1[C@]32OO4 [ARTEMISININ]	0
C[C@@H]1CC[C@H]2[C@@H](CCCc3ccc(F)cc3)CO[C@@H]3OC4(C)CC[C@@H]1[C@]32OO4 (single isomer, unassigned)	0
